Test system: NCI-H226 lung
Test: NCI-60 one-dose screen, 48 h (100 = growth as untreated, 0 = no growth, -100 = all killed)
Settings: 10 µM unless noted
About 83,000 compounds went through this panel and 20% of them were active in at least one assay; those are over-represented in the sample as a whole.
readoutLabel: growth (%)
Entry rule: numbers only, all in %.

Ask: Report growth from NCI-H226 lung testing of CCOC(=O)C1=NNC(c2ccc(Cl)cc2)C1C(=O)N1C(=S)NC(=O)C1CC(C)C (centres undefined)
Result: 92

Ask: Report growth from NCI-H226 lung testing of COc1ccc(-n2c(/C=C3\C(=O)Nc4ccccc43)ccc2CO)cc1
Result: 95.3

Ask: Report growth from NCI-H226 lung testing of O=C(CSc1nc2ccccc2c(=O)n1-c1ccc(Cl)cc1)N/N=C/c1ccc(N2CCCCC2)cc1
Result: 38.2

Ask: Report growth from NCI-H226 lung testing of CS(=O)(=O)c1ccc(-n2cc(/C=N/O)c(-c3ccccc3)n2)cc1
Result: 77.1

Ask: Report growth from NCI-H226 lung testing of COc1ccc(-c2nc(C(Cl)Cl)nc3cc(-c4ccccc4)nn23)cc1
Result: 63.2

Ask: Report growth from NCI-H226 lung testing of O=C1[C@H]2Cc3c([nH]c4ccccc34)[C@@H](c3c(Cl)cccc3Cl)N2C(=O)CN1C1CCN(CC2CCCCC2)CC1
Result: 86.1

Ask: Report growth from NCI-H226 lung testing of FC(F)(F)c1cc(Nc2cccc(Oc3ccc(NC4=NCCN4)nc3)c2)ccc1Cl
Result: 41.9

Ask: Report growth from NCI-H226 lung testing of O=C1C(c2ccccc2)=C(N2CCc3ccccc32)OC1(Cl)Cl
Result: 89.2

Ask: Report growth from NCI-H226 lung testing of COc1cc2oc(-c3cccc(C(=O)N[C@@H](CC(C)C)C(=O)OC(C)(C)C)c3)cc(=O)c2c(OC)c1OC
Result: 72.6

Ask: Report growth from NCI-H226 lung testing of CCn1c(SCC(=O)Nc2cccc(C(=O)/C=C/c3ccc(Br)cc3)c2)nc2ccccc2c1=O
Result: 88.9

Ask: Report growth from NCI-H226 lung testing of CCc1cccc2c3c(sc12)C(c1ccc(Cl)cc1)C(C#N)=C(/N=C/c1ccc(Cl)cc1)O3 (centres undefined)
Result: 53.3

Ask: Report growth from NCI-H226 lung testing of COc1cc2nc(Cl)nc(Nc3cccc(C4=Nc5c(N)nc(N)nc5NC(c5ccc(F)cc5)C4)c3)c2cc1OC (centres undefined)
Result: 75.8

Ask: Report growth from NCI-H226 lung testing of COc1cc(-c2nc(SC(C)C)n(C(C)C)c(=O)c2C#N)ccc1OCc1ccccc1
Result: 87.4

Ask: Report growth from NCI-H226 lung testing of O=C(CN1CCN(c2cc(=O)n(-c3ccccc3)c3ccccc23)CC1)Nc1cccc(C(F)(F)F)c1
Result: 56.6

Ask: Report growth from NCI-H226 lung testing of CNC(=O)c1cc(-c2ccc(NS(=O)(=O)c3ccc(C)cc3)cc2)nc2cccnc12
Result: 88.7

Ask: Report growth from NCI-H226 lung testing of COc1ccc(/C=N/NC(=O)c2cn(C3CC3)c3c(OC)c(N4CC5CCCNC5C4)c(F)cc3c2=O)cc1 (centres undefined)
Result: 99

Ask: Report growth from NCI-H226 lung testing of CCc1cccc2c3c(sc12)C(c1ccc(OC)cc1)C(C#N)=C(/N=C/c1ccc(Cl)cc1)O3 (centres undefined)
Result: 41.2

Ask: Report growth from NCI-H226 lung testing of O=C(Nc1cccc(C(F)(F)F)c1)c1cc(-c2ccc(F)cc2F)ccc1O
Result: 9.06

Ask: Report growth from NCI-H226 lung testing of CCCCCc1ccc(S(=O)(=O)Nc2cccc(-c3csc(NC(=O)CCCCCN4CCN(C)CC4)n3)c2)cc1
Result: 88.2

###

Test system: HS 578T breast
Experiment: NCI-60 one-dose screen, 48 h (100 = growth as untreated, 0 = no growth, -100 = all killed)
Settings: 10 µM unless noted
This is part of a sample that, as a whole, favours compounds with a hit. Of some 83,000 tested, about 20% had one in any assay.
readoutLabel: growth (%)
Entry rule: numbers only, all in %.

Ask: For the compound O=S(=O)(Nc1ccc2c(c1)OCO2)c1ccc(-c2cnc(C3CC3)o2)cc1 , give its measured growth value.
Result: 45.5

Ask: For the compound O=C(NCc1ncc[nH]1)c1ccc(-c2nc3ccc4[nH]ncc4c3c3c2CCCC3)cc1 , give its measured growth value.
Result: -12.8

Ask: For the compound CCCC(=O)NC(c1cccnc1)c1cc(C(C)(C)C)c2cccnc2c1O (stereo not given) , give its measured growth value.
Result: 46.6

Ask: For the compound CC(c1ccccc1)N1CSc2nc3ncncc3n2C1 (stereo not given) , give its measured growth value.
Result: 64.2

Ask: For the compound Cc1ccc2c(c1)Oc1nc(N)c(C#N)c(N)c1C2Sc1ccc(F)cc1 (stereo not given) , give its measured growth value.
Result: -38.1

Ask: For the compound O=C(Nc1cccc(C(F)(F)F)c1)c1cc(-c2ccc(F)cc2F)ccc1O , give its measured growth value.
Result: -5.22

Ask: For the compound COc1cc2nc(Cl)nc(Nc3cccc(C4=Nc5c(N)nc(N)nc5NC(c5ccccc5)C4)c3)c2cc1OC (stereo not given) , give its measured growth value.
Result: 96.4

Ask: For the compound CCN(CC)c1cn(-c2ccc(S(N)(=O)=O)cc2)nn1 , give its measured growth value.
Result: 98.3

Ask: For the compound Nc1nc(-c2cccc([N+](=O)[O-])c2)c(N=Nc2ccc(Br)cc2)s1 , give its measured growth value.
Result: 0.349

Ask: For the compound CC(=O)Nc1cccc(Nc2nc(N[C@H](C)c3ccccc3)c3ccccc3n2)c1 , give its measured growth value.
Result: 80.5

###

System: NCI-H460 lung
Assay: NCI-60 one-dose screen, 48 h
Settings: 10 µM unless noted
This is part of a sample that, as a whole, favours compounds with a hit. Of some 83,000 tested, about 20% had one in any assay. Calls of active or inactive are those of the source. Rule for the calls: active = growth percent below 10; inactive = the rest.
Could you please pick one outcome from this set? TRUE for active, FALSE for inactive

Ask: Status in this test for CCO/C=N/C1=C(C#N)C(c2ccc(OC)cc2)c2sc3c(CC)cccc3c2O1 (stereo not given) ?
Result: TRUE

Ask: Status in this test for CCO/C=N/C1=C(C#N)C(c2ccc(F)cc2)c2sc3c(C)cccc3c2O1 (stereo not given) ?
Result: TRUE

Ask: Status in this test for COc1ccc(CCOc2cc3c(cc2OC)CCN(C(=O)NCc2cocn2)C3c2ccc(C)cc2C)cc1 (stereo not given) ?
Result: TRUE

Ask: Status in this test for O=c1[nH]c(Sc2sc3ccc(Cl)cc3c2CBr)nc(=S)[nH]1 ?
Result: FALSE

Ask: Status in this test for CS(=O)(=O)Nc1cc(-c2ccc3ncc(C#N)c(NCc4ccccc4O)c3c2)cnc1Cl ?
Result: TRUE

###

Test system: 786-0 renal
Experiment: NCI-60 one-dose screen, 48 h
Conditions: 10 µM unless noted
Experimental: Cells are grown in 96 well plates and exposed to the test compound for 48 hours. Compounds are tested at a single concentration, which is 10^-5 M for most compounds. The reported endpoint is percent growth (GI% or GIPRCNT), where numbers from 0 - 100% represent growth inhibition, and numbers from -100% - 0 represent cell death. For example, a value of 40 represents 60% growth inhibition. A value of 0 means no net growth occurred over the course of the experiment. […]
Compounds without any hit were thinned out: in the full panel of roughly 83,000, 20% have a hit. The source made the active and inactive calls. The calls were made as follows: active = growth percent below 10; inactive = the rest.
Could you please pick one outcome from this set? label 1 (active), label 0 (inactive)

Ask: Status in this test for Cc1ccc(-n2cc(/C=N/NC(=O)c3ccncc3)c(-c3ccc(S(C)(=O)=O)cc3)n2)cc1 ?
Result: label 0

Ask: Status in this test for COc1ccc(/C(N)=N/C(N)=N/c2nc3ccccc3s2)cc1 ?
Result: label 0

Ask: Status in this test for C=CC(=O)N1CCC=C(c2cc3c(N[C@H](C)c4ccccc4)ncnc3[nH]2)C1 ?
Result: label 0

Ask: Status in this test for CC(C)(C)c1ccc(C(=O)Nc2nc3ccc(O)cc3s2)cc1 ?
Result: label 1

Ask: Status in this test for COc1c(N2CC3CCCNC3C2)c(F)cc2c(=O)c(C(=O)N/N=C/c3c[nH]c4ccccc34)cn(C3CC3)c12 (stereo not given) ?
Result: label 0

Ask: Status in this test for CC(C)c1ccc(NCc2cn(-c3ccc(C(=O)O)cc3)nc2-c2cc(C(F)(F)F)cc(C(F)(F)F)c2)cc1 ?
Result: label 0

Ask: Status in this test for c1ccc(C(c2nc3ncncc3[nH]2)N2CSc3nc4ccccc4n3C2)cc1 (stereo not given) ?
Result: label 0

Ask: Status in this test for Cc1ccc2sc3c(c2c1)OC(N)=C(C#N)C3c1ccc(Cl)cc1 (stereo not given) ?
Result: label 0

Ask: Status in this test for CN(Cc1ccccc1)S(=O)(=O)/N=C1\NC(=O)NC1=C(Cl)Cl ?
Result: label 0

Ask: Status in this test for CCOC(=O)c1c(Nc2ccccc2)nn2c(-c3cccs3)ccnc12 ?
Result: label 0

Ask: Status in this test for COc1ccc(NC(=O)CSc2nnc(-c3ccc4nc(-c5ccccc5)[nH]c4c3)o2)cc1 ?
Result: label 0

Ask: Status in this test for O=S(=O)(NCCCNc1nccc(-c2[nH]c(-c3ccccc3)nc2-c2ccc(Cl)c(O)c2)n1)c1cccc(F)c1 ?
Result: label 0

Ask: Status in this test for COc1ccc(-c2nc3cc(Cl)c(Cl)cc3n2CC(=O)N=Nc2c(O)[nH]c3ccc(OC)cc23)cc1 ?
Result: label 0

Ask: Status in this test for NC(N)=Nc1ccc(Oc2cccc(NC(N)=Nc3ccc(Br)c(C(F)(F)F)c3)c2)cc1 ?
Result: label 0

Ask: Status in this test for Cc1occc1-c1nc2s/c(=C/c3ccc(-c4cc(C(F)(F)F)ccc4Cl)o3)c(=O)n2n1 ?
Result: label 0

Ask: Status in this test for O=C(Nc1ccc2c(ccn2Cc2ccccn2)c1)c1cnccn1 ?
Result: label 0

Ask: Status in this test for O=C(NNc1nc2cc(F)c(F)cc2n2cccc12)c1cnccn1 ?
Result: label 0

Ask: Status in this test for Cn1ccnc1C(=O)/C=C/c1ccc(NC(=O)c2ccc(F)cc2)cc1 ?
Result: label 0

Ask: Status in this test for COc1ccc(OC)c(-c2nc(SCC(=O)c3ccc(Br)cc3)nc(Nc3ccc(S(N)(=O)=O)cc3)c2C#N)c1 ?
Result: label 0

Ask: Status in this test for CCCn1cnc2c(c1=N)C(c1ccc(Cl)cc1)c1sc3c(CC)cccc3c1O2 (stereo not given) ?
Result: label 0
